Hi there, I'd appreciate the recorded pIC50 for every entry that follows.
Target: Recombinant human HSD17B13 (Homo sapiens (Human))
Sequence (Q7Z5P4 20-300): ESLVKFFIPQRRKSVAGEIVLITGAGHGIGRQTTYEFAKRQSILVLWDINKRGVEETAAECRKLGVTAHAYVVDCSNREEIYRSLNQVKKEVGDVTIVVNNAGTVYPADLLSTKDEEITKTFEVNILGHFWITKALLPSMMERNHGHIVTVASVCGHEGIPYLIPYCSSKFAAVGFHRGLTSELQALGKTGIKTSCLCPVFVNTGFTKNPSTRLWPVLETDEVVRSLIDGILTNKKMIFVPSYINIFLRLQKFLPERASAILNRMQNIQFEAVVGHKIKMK
Experiment: HSD17B13 rapid-fire mass spectrometry assay (RF/MS assay)
Details: inhibition of HSD17B13; LTB4 10 μM, NAD+ 0.5 mM, RT 3 h; IC50 ranges A-E
pIC50: −log10 of the molar value.

INPUT: State its pIC50 for this compound: COc1cc(C(=O)O)c(OC)cc1NS(=O)(=O)c1csc(-c2ccc(C3CCC(C)(C)CC3)cc2C(F)(F)F)n1
OUTPUT: > 7.00

INPUT: Supply pIC50 value. Item: COc1cc(C(=O)O)c(F)cc1NS(=O)(=O)c1csc(-c2ccc([C@H]3CC[C@@H](C(C)C)CC3)c(F)c2F)n1
OUTPUT: > 7.00

INPUT: Fill in reported pIC50 for this entry: COc1cc(C(=O)O)ccc1NS(=O)(=O)c1csc(-c2c(F)ccc3ccccc23)n1
OUTPUT: 6.30 to 7.00

INPUT: Quickly give me recorded pIC50 for COc1cc(C(=O)O)ccc1NS(=O)(=O)c1coc(-c2ccc(C3=CCC(C)(C)CC3)cc2)n1
OUTPUT: 6.30 to 7.00

INPUT: State its pIC50 for this compound: COc1cc(C(=O)O)c(F)cc1NS(=O)(=O)c1csc(-c2ccc(C3=CCC(C)(C)CC3)c(F)c2)n1
OUTPUT: > 7.00

INPUT: For the compound COc1cc(C(=O)O)c(F)cc1NS(=O)(=O)c1csc(-c2ccc(-c3ccc(C45CC6C[C@H](C4)C[C@H](C6)C5)cc3)c(OC(F)(F)F)c2)n1 , give its measured pIC50 value.
OUTPUT: 6.30 to 7.00

INPUT: Indicate the recorded pIC50 value for this compound: COc1cc(C#Cc2nc(S(=O)(=O)Nc3ccc(C(=O)O)cc3OC)cs2)ccn1
OUTPUT: 6.00 to 6.30

INPUT: Kindly indicate its recorded pIC50. Item: COc1cc(C(=O)O)c(F)cc1NS(=O)(=O)c1ncc(-c2ccc(C3CCCCC3)cc2)s1
OUTPUT: 6.30 to 7.00

INPUT: Using the record for COc1cc(S(N)(=O)=O)ccc1NS(=O)(=O)c1cnc(-c2ccc(F)cc2)s1 , state its measured pIC50.
OUTPUT: 4.00 to 6.00

INPUT: For the compound COc1cc(C(=O)O)c(F)cc1NS(=O)(=O)c1nc(-c2ccc(C3CCCCC3)cc2)sc1C , report pIC50.
OUTPUT: 6.30 to 7.00

INPUT: // Input: COc1cc(C(=O)O)ccc1NS(=O)(=O)c1csc(N2CCN(c3cccc(OC(F)(F)F)c3)CC2)n1 . Output its pIC50 only.
OUTPUT: 6.30 to 7.00
